The values you see were collected from ChEMBL document CHEMBL5143585.

biological target: D(1B) dopamine receptor (Homo sapiens, UniProt P21918); assay: Displacement of [3H]-SCH23390 from human D5 receptor expressed in HEK293 cell membrane by competitive inhibition based analysis; assay type: cell membranes
Sequence (P21918 whole entry): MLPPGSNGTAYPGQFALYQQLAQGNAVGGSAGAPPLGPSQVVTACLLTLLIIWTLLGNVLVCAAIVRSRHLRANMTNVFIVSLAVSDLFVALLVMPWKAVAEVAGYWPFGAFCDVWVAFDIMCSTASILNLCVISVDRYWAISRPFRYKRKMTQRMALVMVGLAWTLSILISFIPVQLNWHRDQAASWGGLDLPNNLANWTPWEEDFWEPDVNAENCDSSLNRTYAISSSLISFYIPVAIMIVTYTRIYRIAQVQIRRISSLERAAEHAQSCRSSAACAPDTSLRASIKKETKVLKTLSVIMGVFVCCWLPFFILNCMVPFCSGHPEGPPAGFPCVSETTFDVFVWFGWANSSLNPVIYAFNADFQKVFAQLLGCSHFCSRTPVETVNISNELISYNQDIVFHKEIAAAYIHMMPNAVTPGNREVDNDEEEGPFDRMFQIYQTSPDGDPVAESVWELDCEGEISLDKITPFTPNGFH
valueKind: Ki

• Cc1cc(CO[C@H]2CCCN(c3ccc(Cl)cc3)C2)ccc1F = > 10 µM

* * *

Reported inhibition values for the following molecules.
target: D(3) dopamine receptor (Homo sapiens, UniProt P35462); experiment: Displacement of [3H]N-methylspiperone from human D3 receptor expressed in HEK293 cell membrane at 10 uM by competitive inhibition based analysis; assay type: cell membranes; settings: filed as antagonist
Sequence (P35462 whole entry): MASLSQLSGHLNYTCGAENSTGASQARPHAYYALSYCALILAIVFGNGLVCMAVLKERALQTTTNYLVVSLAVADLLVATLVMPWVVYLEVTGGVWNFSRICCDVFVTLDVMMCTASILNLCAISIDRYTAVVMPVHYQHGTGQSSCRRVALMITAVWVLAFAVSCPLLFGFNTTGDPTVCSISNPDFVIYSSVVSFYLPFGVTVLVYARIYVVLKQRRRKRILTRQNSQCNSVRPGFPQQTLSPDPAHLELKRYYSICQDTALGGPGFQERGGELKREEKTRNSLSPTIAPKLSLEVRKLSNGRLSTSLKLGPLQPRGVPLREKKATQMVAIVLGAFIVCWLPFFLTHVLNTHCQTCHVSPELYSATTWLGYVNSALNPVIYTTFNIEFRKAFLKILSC
valueKind: inhibition (%)

- Cn1ncc2cc(CN3CCC(OCc4cccc(C(F)(F)F)c4)CC3)ccc21: 92
- Fc1ccc(COC2CCN(Cc3ccc4[nH]cnc4c3)CC2)cc1F: 57
- Fc1ccc(COC2CCN(Cc3cc4ccc(Cl)cc4[nH]3)CC2)cc1F: 73
- Fc1cccc(CO[C@H]2CCCN(c3ccc(Cl)cc3)C2)c1: 71

* * *

Reported pKi values for the following compounds.
biological target: D(3) dopamine receptor (Homo sapiens); test: Displacement of [3H]N-methylspiperone from human D3 receptor expressed in HEK293 cell membrane by competitive inhibition based analysis; assay type: cell membranes
pKi: −log10 of the molar value.
valueKind: pKi

• FC(F)(F)c1cccc(COC2CCN(Cc3ccc4[nH]cnc4c3)CC2)c1 = 6.02
• Cc1c(Cl)cccc1NC(=O)CN1CCC(OCc2cccc(C(F)(F)F)c2)CC1 = 5.67
• Cc1c(Cl)cccc1NC(=O)CN1CCC(OCc2ccc(F)c(F)c2)CC1 = 5.61
• Cc1c(Cl)cccc1NC(=O)CN1CCC(OCc2ccc(Cl)c(F)c2)CC1 = 5.63
• Fc1cc(COC2CCN(Cc3cc4ccc(Cl)cc4[nH]3)CC2)ccc1Cl = 6.25
• Cc1nc(CN2CCC(OCc3cccc(C(F)(F)F)c3)CC2)c2ccccn12 = 6.05

* * *

target: D(2) dopamine receptor (Homo sapiens); test: Displacement of [3H]N-methylspiperone from human D2 receptor expressed in HEK293 cell membrane at 10 uM by competitive inhibition based analysis; format: cell membranes
Reported inhibition values for the following molecules.
valueKind: inhibition

- Cc1cc(CO[C@H]2CCCN(Cc3ncn4ccccc34)C2)ccc1F: < 50%
- Fc1cccc(COC2CCN(Cc3ncn4ccccc34)CC2)c1: < 50%
- Cc1ccc(CO[C@H]2CCCN(Cc3ccc(C#N)cc3)C2)cc1: < 50%
- Cc1cc(CO[C@H]2CCCN(Cc3cn4ccccc4n3)C2)ccc1F: < 50%
- COc1ccc(CN2CCO[C@H](COc3ccccc3)C2)cc1F: < 50%
- Fc1ccc(COC2CCN(Cc3cn4ccccc4n3)CC2)cc1F: < 50%
- Cn1ncc2cc(CN3CCC(OCc4cccc(C(F)(F)F)c4)CC3)ccc21: < 50%
- Fc1cc(COC2CCN(Cc3cn4ccccc4n3)CC2)ccc1Cl: < 50%
- Cc1ccccc1CO[C@H]1CCCN(Cc2cn3ccccc3n2)C1: < 50%
- Fc1ccc(CO[C@H]2CCCN(Cc3cn4ccccc4n3)C2)cc1F: < 50%
- Cc1nc(CN2CCC(OCc3ccc(Cl)c(F)c3)CC2)c2ccccn12: < 50%

* * *

test: Intrinsic clearance in human liver microsomes; type: ADME, Microsome; details: read-out: CLH
valueKind: CLint scaled (mL/min/kg)

- COc1ccc(CN2CCO[C@H](COc3ccccc3)C2)cc1F: 71.9
